# protein stability index annotations
method_summary: protein stability index of a GFP-peptide fusion (yeast GPS) (PSI 1-4); higher = more stable; sorted into four equal gates, so the index is relative within each strain
setup_conditions: ubr1∆
measured_quantity: protein stability index

[
  {
    "primary_sequence": "LQAQLDYLNAELGEFFV [FAS2]",
    "reported": 3.18
  },
  {
    "primary_sequence": "VSSKCNDIHLRFMRFLA [ECM29]",
    "reported": 2.08
  },
  {
    "primary_sequence": "REMALCRELHNKHLTTL [SSN3]",
    "reported": 1.8
  },
  {
    "primary_sequence": "NEIEGKNEETPQNEKPP [RPC25]",
    "reported": 3.3
  },
  {
    "primary_sequence": "NFNSVNDANITSNKEGF [SSN2]",
    "reported": 3.12
  },
  {
    "primary_sequence": "SSKYAYMMNSQSPRGKI [YLR018C/POM34]",
    "reported": 2.78
  },
  {
    "primary_sequence": "LKYHDFLRKATAFNKTR [RPL16B]",
    "reported": 3.08
  },
  {
    "primary_sequence": "IEWCSRCNDNLMRSCFY [YJL039C/NUP192]",
    "reported": 2.69
  },
  {
    "primary_sequence": "NSSEIQSAIRPAGQATQ [RPL4A]",
    "reported": 2.57
  },
  {
    "primary_sequence": "SKQLSLEEKKKRPNNKT [IRR1]",
    "reported": 2.79
  }
]

----------
# protein stability index annotations
method_summary: protein stability index of a GFP-peptide fusion (yeast GPS) (PSI 1-4); higher = more stable; sorted into four equal gates, so the index is relative within each strain
setup_conditions: ubr1∆

[
  {
    "primary_sequence": "DLLRSQLTSLEKDCSLR [YIL149C/MLP2]",
    "protein stability index": 3.03
  },
  {
    "primary_sequence": "DDKDCTIKISTNDDSIK [RGR1]",
    "protein stability index": 2.96
  },
  {
    "primary_sequence": "KELQYDNEQNLESDFVT [PRE2]",
    "protein stability index": 3.02
  },
  {
    "primary_sequence": "KFFTQSNLEKLPKYKEK [MED7]",
    "protein stability index": 2.62
  },
  {
    "primary_sequence": "KIKHGSVTEIPLKLSGE [YMR129W/POM152]",
    "protein stability index": 2.97
  },
  {
    "primary_sequence": "TDVLEISKQRTFAVILF [YMR129W/POM152]",
    "protein stability index": 2.21
  },
  {
    "primary_sequence": "FTAEGIVPDLIINPHAI [RPB2]",
    "protein stability index": 2.67
  },
  {
    "primary_sequence": "KQINEARDEILPLRLQF [PGD1]",
    "protein stability index": 2.77
  },
  {
    "primary_sequence": "QYTKDEQFYTKDIIDPK [RPN2]",
    "protein stability index": 3.29
  },
  {
    "primary_sequence": "NRERFISKLFLRGDSVI [SMD2]",
    "protein stability index": 3.03
  },
  {
    "primary_sequence": "VEFKLPKELVPSHEKLK [CDC53]",
    "protein stability index": 2.08
  },
  {
    "primary_sequence": "FLNSNAVVVGTGNIKHE [COR1]",
    "protein stability index": 1.24
  },
  {
    "primary_sequence": "IFIRQLKENEENEDGNI [BRR2]",
    "protein stability index": 2.01
  },
  {
    "primary_sequence": "MAGLMHFKKPDITVHGE [RRP45]",
    "protein stability index": 1.25
  },
  {
    "primary_sequence": "THLEIEPFTILGAVAGL [RET1]",
    "protein stability index": 2.04
  },
  {
    "primary_sequence": "GDLVYARVCTAEKELEA [RRP40]",
    "protein stability index": 1.2
  },
  {
    "primary_sequence": "DQAIVTETKRLVVIRFG [DIB1]",
    "protein stability index": 2.45
  },
  {
    "primary_sequence": "LVSMRYPEDKKTQQNEK [RPN3]",
    "protein stability index": 3.12
  },
  {
    "primary_sequence": "QTNIWEENWDDVEVDDD [SEM1]",
    "protein stability index": 3.38
  },
  {
    "primary_sequence": "QELISKAFTNWNKRDFM [ISW2]",
    "protein stability index": 2.89
  },
  {
    "primary_sequence": "DPVSGAILVPMTVNDQP [YJR042W/NUP85]",
    "protein stability index": 2.4
  },
  {
    "primary_sequence": "ININEFALPAGSPKSAT [CDC53]",
    "protein stability index": 2.73
  },
  {
    "primary_sequence": "QDKEGIPPDQQRLIFAG [RPS31]",
    "protein stability index": 3.15
  },
  {
    "primary_sequence": "ISQKLHDSILHSRILPK [RRP43]",
    "protein stability index": 2.8
  },
  {
    "primary_sequence": "YNSVRPFGVSTIFGGVD [PRE10]",
    "protein stability index": 2.57
  },
  {
    "primary_sequence": "GIFNLLNTLFNPVTLNE [NUT1]",
    "protein stability index": 1.92
  },
  {
    "primary_sequence": "PYAIVKGKARLGTLVNQ [RPL8A]",
    "protein stability index": 2.73
  },
  {
    "primary_sequence": "LKLNTSLPSKLTKYKEM [SRP68]",
    "protein stability index": 1.95
  },
  {
    "primary_sequence": "TRQSSRNFDTHENYIQD [MCD1]",
    "protein stability index": 2.69
  },
  {
    "primary_sequence": "LVQLEPHLFVNGDLTVS [SSN2]",
    "protein stability index": 1.5
  },
  {
    "primary_sequence": "VTTKDDLSGADIQAMCT [RPT2]",
    "protein stability index": 3.35
  },
  {
    "primary_sequence": "HARARGPRAVLTRQPTE [RET1]",
    "protein stability index": 3.26
  },
  {
    "primary_sequence": "EIKKLLATNSLVEEFML [DIS3]",
    "protein stability index": 2.3
  },
  {
    "primary_sequence": "VFESLEINNLIQLPASL [ARP9]",
    "protein stability index": 1.6
  },
  {
    "primary_sequence": "FEASCMEGQKLDDPVLN [YJR042W/NUP85]",
    "protein stability index": 1.53
  },
  {
    "primary_sequence": "KDAQKKDIEKLTNEISD [YIL149C/MLP2]",
    "protein stability index": 2.49
  },
  {
    "primary_sequence": "QHDKMVDKIFEKVNNNA [SWI1]",
    "protein stability index": 2.99
  },
  {
    "primary_sequence": "DNVVRFLNEARDKAGRL [RPO21]",
    "protein stability index": 1.76
  },
  {
    "primary_sequence": "GWKPLRYLDNLKQEIDR [SNU114]",
    "protein stability index": 3.15
  },
  {
    "primary_sequence": "MSVQDTKAVEFSMGHIR [MED4]",
    "protein stability index": 2.9
  },
  {
    "primary_sequence": "REKNSLESGKETALEFL [SMC4]",
    "protein stability index": 3.63
  },
  {
    "primary_sequence": "QKLFVQVSNFAPQVYII [GAL11]",
    "protein stability index": 2.32
  },
  {
    "primary_sequence": "KDLKEILSGFHNAGPVA [RPP1B]",
    "protein stability index": 2.58
  },
  {
    "primary_sequence": "AAKLKQTENDLKDIEAR [RPT1]",
    "protein stability index": 3.1
  },
  {
    "primary_sequence": "ARKETYSSYIYKVLKQT [HTB1]",
    "protein stability index": 2.47
  },
  {
    "primary_sequence": "MSRPQVTVHSLTGEATA [RPL4A]",
    "protein stability index": 2.07
  },
  {
    "primary_sequence": "EKASGFEDSMQFKKLTH [PRP8]",
    "protein stability index": 3.01
  },
  {
    "primary_sequence": "EYYRIQKQLPQKTRVKL [ESC2]",
    "protein stability index": 2.82
  },
  {
    "primary_sequence": "NGGVGVDVELITSINVE [FAS2]",
    "protein stability index": 3.13
  },
  {
    "primary_sequence": "LITSSARKELPIFDYIH [SIR3]",
    "protein stability index": 2.48
  },
  {
    "primary_sequence": "QEGMNECPGHFGHIDLA [RPO21]",
    "protein stability index": 3.29
  }
]
